Biological target: Msn1 (UniProt P22148)
Sequence: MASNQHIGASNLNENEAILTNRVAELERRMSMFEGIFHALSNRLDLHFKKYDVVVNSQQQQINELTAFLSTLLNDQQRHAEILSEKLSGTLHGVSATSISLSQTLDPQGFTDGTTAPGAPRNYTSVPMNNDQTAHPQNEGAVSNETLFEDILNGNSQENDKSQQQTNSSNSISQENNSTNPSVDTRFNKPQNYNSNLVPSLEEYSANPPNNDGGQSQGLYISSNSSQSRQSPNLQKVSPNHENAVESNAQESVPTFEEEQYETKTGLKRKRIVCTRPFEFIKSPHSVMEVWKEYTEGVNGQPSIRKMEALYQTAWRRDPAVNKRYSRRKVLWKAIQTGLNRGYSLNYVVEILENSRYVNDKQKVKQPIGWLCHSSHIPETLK
Assay: PBM E-score (8-mer binding enrichment) (E-score (-0.5 to 0.5)); higher = stronger / more preferred TF binding
Settings: protein concentration: 200 nM; construct: GST-full length
In all, about 33,000 sequences were measured (“E-score (-0.5 to 0.5)”: median about -0.013, highest 2% from about 0.3 on). This excerpt belongs to a sample that is enriched for the highest values.
ENDPOINT_LABEL: PBM E-score

Challenge: Please state recorded PBM E-score (tested on Msn1 (UniProt P22148)) of ACAATCTA
Response given: 0.0825

Challenge: Given the entry CTGTCCAC , what PBM E-score was observed with Msn1 (UniProt P22148)?
Response given: 0.184
